Hello, the source for this data is ChEMBL document CHEMBL5674880, in case you need it.

# System: 5637
# method: Antiproliferative activity against human 5637 cells in 2D growth culture
# Assay type: functional, cell-based
pIC50: −log10 of the molar value.
test readout: pIC50

// pIC50 lookup, key: `N[C@H]1CC[C@H](S(=O)(=O)N2[C@@H]3CC[C@H]2C[C@@H](NC(=O)c2cc(C4CC4)on2)C3)CC1`
< 4.60

----------
# Tested on: SK-LU-1
# method: Antiproliferative activity against human SK-LU-1 cells expressing KRAS G12D mutant
# Format: functional, cell-based
test readout: IC50

Find the measured IC50: item `N[C@H]1CC[C@H](S(=O)(=O)N2[C@@H]3CC[C@H]2C[C@@H](NC(=O)c2cc(C4CC4)on2)C3)CC1` , target or system SK-LU-1.
> 20 µM

----------
# Test system: SH-4
# method: Antiproliferative activity against human SH-4 cells in 3D growth culture
# Assay type: functional, cell-based
pIC50: −log10 of the molar value.
test readout: pIC50

// pIC50 lookup, key: `N[C@H]1CC[C@H](S(=O)(=O)N2[C@@H]3CC[C@H]2C[C@@H](NC(=O)c2cc(C4CC4)on2)C3)CC1`
< 4.60

----------
# Tested on: EM-2
# method: Antiproliferative activity against human EM-2 cells after 10 days
# Type: functional, cell-based
# experimental parameters: EM-2, 240 h
test readout: pIC50
Remember, pIC50 is on a log scale: it is -log10 of the molar concentration.

// pIC50 lookup, key: `Cc1cn(CCN2CCN(c3ccccc3-c3cc(C#N)cc(C(=O)NCCCN4CCCC4)c3)CC2)c2ccccc12`
5.65

----------
# Tested on: BFTC-905
# method: Antiproliferative activity against human BFTC-905 cells after 10 days
# Format: functional, cell-based
# experimental parameters: BFTC-905, 240 h
test readout: pIC50
Remember, pIC50 is on a log scale: it is -log10 of the molar concentration.

Find the measured pIC50: item `Cc1cn(CCN2CCN(c3ccccc3-c3cc(C#N)cc(C(=O)NCCCN4CCCC4)c3)CC2)c2ccccc12` , target or system BFTC-905.
5.60

----------
# Tested on: DoTc2-4510
# method: Antiproliferative activity against human DoTc2-4510 cells after 10 days
# Assay type: functional, cell-based
# experimental parameters: DoTc2-4510, 240 h
test readout: pIC50
Remember, pIC50 is on a log scale: it is -log10 of the molar concentration.

// pIC50 lookup, key: `Cc1cn(CCN2CCN(c3ccccc3-c3cc(C#N)cc(C(=O)NCCCN4CCCC4)c3)CC2)c2ccccc12`
5.97

----------
# Test system: HOS
# method: Antiproliferative activity against human HOS cells in 2D growth culture
# Type: functional, cell-based
pIC50: −log10 of the molar value.
test readout: pIC50

Find the measured pIC50: item `N[C@H]1CC[C@H](S(=O)(=O)N2[C@@H]3CC[C@H]2C[C@@H](NC(=O)c2cc(C4CC4)on2)C3)CC1` , target or system HOS.
< 4.60

----------
# method: Antiproliferative activity against human OCUG-1 cells after 10 days
# Type: functional, cell-based
# experimental parameters: OCUG-1, 240 h
test readout: IC50 (µM)
State the answer as a number, implicitly in µM.

// IC50 lookup, key: `Cc1cn(CCN2CCN(c3ccccc3-c3cc(C#N)cc(C(=O)NCCCN4CCCC4)c3)CC2)c2ccccc12`
2.34

----------
# System: H4
# method: Antiproliferative activity against human H4 cells after 10 days
# Type: functional, cell-based
# experimental parameters: H4, 240 h
pIC50: −log10 of the molar value.
test readout: pIC50

// pIC50 lookup, key: `O=C(NC1CN(Cc2cnn(Cc3ccccc3)c2)C1)c1cn(C2CC2)nn1`
< 5.00

----------
# Test system: HPAF-II
# method: Antiproliferative activity against human HPAF-II cells after 10 days
# Type: functional, cell-based
# experimental parameters: 240 h
test readout: pIC50
Remember, pIC50 is on a log scale: it is -log10 of the molar concentration.

// pIC50 lookup, key: `Cc1cn(CCN2CCN(c3ccccc3-c3cc(C#N)cc(C(=O)NCCCN4CCCC4)c3)CC2)c2ccccc12`
5.80

----------
# Tested on: AU565
# method: Antiproliferative activity against human AU565 cells after 10 days
# Format: functional, cell-based
# experimental parameters: AU565, 240 h
test readout: IC50 (nM)
State the answer as a number, implicitly in nM.

// IC50 lookup, key: `Cc1cn(CCN2CCN(c3ccccc3-c3cc(C#N)cc(C(=O)NCCCN4CCCC4)c3)CC2)c2ccccc12`
1250

----------
# System: U-266
# method: Antiproliferative activity against human U266B1 cells in 2D growth culture
# Type: functional, cell-based
test readout: IC50

// IC50 lookup, key: `N[C@H]1CC[C@H](S(=O)(=O)N2[C@@H]3CC[C@H]2C[C@@H](NC(=O)c2cc(C4CC4)on2)C3)CC1`
> 25 µM

----------
# Tested on: NCI-H2029
# method: Antiproliferative activity against human NCI-H2029 cells expressing wild-type KRAS
# Format: functional, cell-based
test readout: IC50

// IC50 lookup, key: `N[C@H]1CC[C@H](S(=O)(=O)N2[C@@H]3CC[C@H]2C[C@@H](NC(=O)c2cc(C4CC4)on2)C3)CC1`
> 20 µM

----------
# method: Antiproliferative activity against human HLF cells in 3D growth culture
# Type: functional, cell-based
test readout: IC50

// IC50 lookup, key: `N[C@H]1CC[C@H](S(=O)(=O)N2[C@@H]3CC[C@H]2C[C@@H](NC(=O)c2cc(C4CC4)on2)C3)CC1`
> 25 µM

----------
# Test system: MX1
# method: Antiproliferative activity against human MX1 cells after 10 days
# Type: functional, cell-based
# experimental parameters: MX1, 240 h
test readout: IC50

// IC50 lookup, key: `O=C(NC1CN(Cc2cnn(Cc3ccccc3)c2)C1)c1cn(C2CC2)nn1`
> 10 µM

----------
# Tested on: D283 Med
# method: Antiproliferative activity against human D283 Med cells after 10 days
# Assay type: functional, cell-based
# experimental parameters: 240 h
test readout: pIC50
Remember, pIC50 is on a log scale: it is -log10 of the molar concentration.

Find the measured pIC50: item `Cc1cn(CCN2CCN(c3ccccc3-c3cc(C#N)cc(C(=O)NCCCN4CCCC4)c3)CC2)c2ccccc12` , target or system D283 Med.
5.60

----------
# Test system: SW480
# method: Antiproliferative activity against human SW480 cells after 10 days
# Format: functional, cell-based
# experimental parameters: SW480, 240 h
test readout: pIC50
Remember, pIC50 is on a log scale: it is -log10 of the molar concentration.

// pIC50 lookup, key: `Cc1cn(CCN2CCN(c3ccccc3-c3cc(C#N)cc(C(=O)NCCCN4CCCC4)c3)CC2)c2ccccc12`
5.67
